Recorded values, source the supplement of paper PMC11061612.

Quick reference: combination Emax of the listed items.
Tested on: CAL-51 (Breast Carcinoma)
Assay: combination Emax (second highest fraction inhibited in the dose matrix, 72 h); higher = more inhibition; extreme values may be limits of the assay
Answer field: number only, no words.

Task: Give the measured combination Emax of Cn1cnc2c(F)c(Nc3ccc(Br)cc3Cl)c(C(=O)NOCCO)cc21 [Selumetinib] + C[C@@H]1COCCN1C2=NC(=NC(=C2)C3(CC3)[S@](=N)(=O)C)C4=C5C=CNC5=NC=C4 [AZD6738] (first compound max 10 µM, 7x7, partner max 10 µM) .
Output: 0.964

Task: What does the data say about its combination Emax? Entry: CN(CCO)CC[C@H](CSc1ccccc1)Nc1ccc(S(=O)(=O)NC(=O)c2ccc(N3CCC([C@@H](O)c4ccccc4-c4ccc(Cl)cc4)CC3)cc2)cc1S(=O)(=O)C(F)(F)F [AZD4320] + CCN(CCO)CCCOc1ccc2c(Nc3cc(CC(=O)Nc4cccc(F)c4)[nH]n3)ncnc2c1 [AZD2811] (first compound max 1 µM, 7x7, partner max 1 µM)
Output: 0.615

Task: Record request: combination Emax value, item NC1(C(=O)N[C@@H](CCO)c2ccc(Cl)cc2)CCN(c2ncnc3[nH]ccc23)CC1 [Capivasertib] + C[C@@H]1COCCN1C2=NC(=NC(=C2)C3(CC3)[S@](=N)(=O)C)C4=C5C=CNC5=NC=C4 [AZD6738] (first compound max 10 µM, 7x7, partner max 10 µM)
Output: 0.936

Task: So what does the record say about combination Emax for CC1(C)CCC(CN2CCN(c3ccc(C(=O)NS(=O)(=O)c4ccc(NCC5CCOCC5)c([N+](=O)[O-])c4)c(Oc4cnc5[nH]ccc5c4)c3)CC2)=C(c2ccc(Cl)cc2)C1 [Venetoclax] + C[C@@H](Nc1cc(F)cc(F)c1)c1cc(C(=O)N(C)C)cc2c(=O)cc(N3CCOCC3)oc12 [AZD8186] (first compound max 1 µM, 7x7, partner max 3 µM) ?
Output: 0.0234

====

Test system: NCI-H2795 (Mesothelioma)
Experiment: combination Emax (second highest fraction inhibited in the dose matrix, 72 h); higher = more inhibition; extreme values may be limits of the assay
observable: combination Emax
Write the value as a bare number.

Sample records with combination Emax:
Task: State the recorded combination Emax for this entry: CCN(CCO)CCCOc1ccc2c(Nc3cc(CC(=O)Nc4cccc(F)c4)[nH]n3)ncnc2c1 [AZD2811] + C[C@@H]1COCCN1C2=NC(=NC(=C2)C3(CC3)[S@](=N)(=O)C)C4=C5C=CNC5=NC=C4 [AZD6738] (first compound max 1 µM, 7x7, partner max 10 µM)
Output: 0.674

Task: What measured combination Emax goes with COc1cc2ncnc(Nc3ccc(F)c(Cl)c3)c2cc1OCCCN1CCOCC1 [Gefitinib] + CC(C)n1c(=O)n(C)c2cnc3cc(F)c(-c4ccc(OCCCN5CCCCC5)nc4)cc3c21 [AZD1390] (first compound max 10 µM, 7x7, partner max 0.3 µM) ?
Output: 0.324

Task: // lookup combination Emax for CN(CCO)CC[C@H](CSc1ccccc1)Nc1ccc(S(=O)(=O)NC(=O)c2ccc(N3CCC([C@@H](O)c4ccccc4-c4ccc(Cl)cc4)CC3)cc2)cc1S(=O)(=O)C(F)(F)F [AZD4320] + Cn1cnc2c(F)c(Nc3ccc(Br)cc3Cl)c(C(=O)NOCCO)cc21 [Selumetinib] (first compound max 1 µM, 7x7, partner max 3 µM)
Output: 0.827

Task: Param item = CS(=O)(=O)CCNCc1ccc(-c2ccc3ncnc(Nc4ccc(OCc5cccc(F)c5)c(Cl)c4)c3c2)o1 [Lapatinib] + Cn1cnc2c(F)c(Nc3ccc(Br)cc3Cl)c(C(=O)NOCCO)cc21 [Selumetinib] (first compound max 10 µM, 7x7, partner max 10 µM) ; retrieve measured combination Emax.
Output: 0.893

Task: # input compound: Cc1c2c(nn1C)CSCc1cc(n(C)n1)CSc1cc(c3ccccc3c1)OCCCc1c(C(=O)O)n(C)c3c-2c(Cl)ccc13 [AZD5991] + C=CCn1c(=O)c2cnc(Nc3ccc(N4CCN(C)CC4)cc3)nc2n1-c1cccc(C(C)(C)O)n1 [AZD1775] (first compound max 1 µM, partner max 1 µM) ; wanted: its combination Emax
Output: 0.881

The record that follows has no combination Emax shown yet.
Task: Endpoint output: combination Emax of CC1(C)CCC(CN2CCN(c3ccc(C(=O)NS(=O)(=O)c4ccc(NCC5CCOCC5)c([N+](=O)[O-])c4)c(Oc4cnc5[nH]ccc5c4)c3)CC2)=C(c2ccc(Cl)cc2)C1 [Venetoclax] + COc1cc(Nc2ncc3c(n2)-c2ccc(Cl)cc2C(c2c(F)cccc2OC)=NC3)ccc1C(=O)O [Alisertib] (first compound max 1 µM, 7x7, partner max 10 µM) . Value?
Output: 0.936

====

Test system: HDLM-2 (Hodgkin's Lymphoma)
Assay: Bliss excess, mean over the matrix (fraction); higher = more synergy
Recorded Bliss excess values for a group of compounds are listed next.
# respond with the number and nothing more

Task: Consider the compound NC1(C(=O)N[C@@H](CCO)c2ccc(Cl)cc2)CCN(c2ncnc3[nH]ccc23)CC1 [Capivasertib] + CCN(CCO)CCCOc1ccc2c(Nc3cc(CC(=O)Nc4cccc(F)c4)[nH]n3)ncnc2c1 [AZD2811] (first compound max 10 µM, 7x7, partner max 1 µM) and give its measured Bliss excess.
Output: 0.0228

---
Task: For the compound O=C(c1cc(Cc2n[nH]c(=O)c3ccccc23)ccc1F)N1CCN(C(=O)C2CC2)CC1 [Olaparib] + CN(CC[C@H](CSC1=CC=CC=C1)NC2=C(C=C(C=C2)S(=O)(=O)NC(=O)C3=CC=C(C=C3)N4CCC(CC4)[C@H](C5=CC=CC=C5C6=CC=C(C=C6)Cl)O)S(=O)(=O)C(F)(F)F)CCO [AZD4320] (first compound max 10 µM, 7x7, partner max 1 µM) , what Bliss excess is on record?
Output: -0.0141

Task: Any idea what its Bliss excess is? The compound is NC1(C(=O)N[C@@H](CCO)c2ccc(Cl)cc2)CCN(c2ncnc3[nH]ccc23)CC1 [Capivasertib] + CC(C)n1c(=O)n(C)c2cnc3cc(F)c(-c4ccc(OCCCN5CCCCC5)nc4)cc3c21 [AZD1390] (first compound max 10 µM, 7x7, partner max 0.3 µM)
Output: -0.0002

====

Tested on: 8305C (Thyroid Gland Carcinoma)
Test: Bliss excess, mean over the matrix (fraction); higher = more synergy
So basically: Bliss excess at -0.04 or higher? That is 1. Lower than -0.04? That is -1.

Worked examples, 3 compounds total:
Task: Is reported Bliss excess greater than or equal to -0.04 here: O=C(c1cc(Cc2n[nH]c(=O)c3ccccc23)ccc1F)N1CCN(C(=O)C2CC2)CC1 [Olaparib] + COc1nnc2ccc(N3CCC(c4ccc(OCCN5CCN(C)C(=O)[C@H]5C)cc4)CC3)nn12 [AZD5153] (first compound max 10 µM, 7x7, partner max 1 µM)
Output: -1

Task: Bliss excess >= -0.04 for N#Cc1cnc(Nc2cc(NC[C@H]3CNCCO3)c(C(F)(F)F)cn2)cn1 [SRA737] + CCc1c2c(nc3ccc(O)cc13)-c1cc3c(c(=O)n1C2)COC(=O)[C@]3(O)CC [SN-38] (first compound max 10 µM, 7x7, partner max 0.3 µM) ?
Output: -1

Task: Quick check, Bliss excess >= -0.04? NC1(C(=O)N[C@@H](CCO)c2ccc(Cl)cc2)CCN(c2ncnc3[nH]ccc23)CC1 [Capivasertib] + COc1nnc2ccc(N3CCC(c4ccc(OCCN5CCN(C)C(=O)[C@H]5C)cc4)CC3)nn12 [AZD5153] (first compound max 10 µM, 7x7, partner max 1 µM)
Output: 1

Others:
Task: Does the reported Bliss excess for CN(CCO)CC[C@H](CSc1ccccc1)Nc1ccc(S(=O)(=O)NC(=O)c2ccc(N3CCC([C@@H](O)c4ccccc4-c4ccc(Cl)cc4)CC3)cc2)cc1S(=O)(=O)C(F)(F)F [AZD4320] + CN(C)CCCOc1ccc(-c2ccc3ncc4c(c3c2)n(C2CCOCC2)c(=O)n4C)cn1 [AZD0156] (first compound max 1 µM, 7x7, partner max 1 µM) fall at or above the -0.04 mark?
Output: -1

Task: Threshold query (Bliss excess >= -0.04) on C=CCn1c(=O)c2cnc(Nc3ccc(N4CCN(C)CC4)cc3)nc2n1-c1cccc(C(C)(C)O)n1 [AZD1775] + C1CN(CCC1(C(=O)N[C@@H](CCO)C2=CC=C(C=C2)Cl)N)C3=NC=NC4=C3C=CN4 [Capivasertib] (first compound max 3 µM, partner max 3 µM)
Output: 1

Task: In plain terms: is recorded Bliss excess at least -0.04 for CN(C)CCCOc1ccc(-c2ccc3ncc4c(c3c2)n(C2CCOCC2)c(=O)n4C)cn1 [AZD0156] + O=C(c1cc(Cc2n[nH]c(=O)c3ccccc23)ccc1F)N1CCN(C(=O)C2CC2)CC1 [Olaparib] (first compound max 3 µM, partner max 3 µM) ?
Output: 1

Task: Does Bliss excess meet or surpass -0.04 for C[C@@H]1COCCN1c1cc(C2([S@](C)(=N)=O)CC2)nc(-c2ccnc3[nH]ccc23)n1 [AZD6738] + Nc1ccn([C@@H]2O[C@H](CO)[C@@H](O)C2(F)F)c(=O)n1 [Gemcitabine] (first compound max 10 µM, 7x7, partner max 0.3 µM) ?
Output: 1
